Value source: ChEMBL document CHEMBL1134143

SUBJECT_OF_TEST: Sodium-dependent serotonin transporter (Rattus norvegicus)
Sequence (P31652 whole entry): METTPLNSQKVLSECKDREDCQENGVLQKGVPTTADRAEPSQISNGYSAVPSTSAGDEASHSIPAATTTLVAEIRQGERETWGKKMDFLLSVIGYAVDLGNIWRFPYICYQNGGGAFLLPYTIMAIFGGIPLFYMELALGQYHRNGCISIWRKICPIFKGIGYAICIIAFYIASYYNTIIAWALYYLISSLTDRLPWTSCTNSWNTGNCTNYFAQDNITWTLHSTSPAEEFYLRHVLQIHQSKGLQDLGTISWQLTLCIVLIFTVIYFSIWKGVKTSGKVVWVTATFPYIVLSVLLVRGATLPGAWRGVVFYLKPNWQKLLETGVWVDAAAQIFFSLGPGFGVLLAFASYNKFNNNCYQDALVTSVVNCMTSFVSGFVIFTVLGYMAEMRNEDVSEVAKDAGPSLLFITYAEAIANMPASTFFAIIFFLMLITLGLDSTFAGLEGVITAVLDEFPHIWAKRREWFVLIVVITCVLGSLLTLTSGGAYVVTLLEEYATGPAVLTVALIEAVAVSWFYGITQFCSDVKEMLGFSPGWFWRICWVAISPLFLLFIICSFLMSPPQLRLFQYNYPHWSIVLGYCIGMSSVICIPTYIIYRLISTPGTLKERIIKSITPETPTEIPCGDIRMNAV
Attribute: pKi
In simple prose, pKi is minus the logarithm base ten of a concentration in moles per litre.

>>> number("N#Cc1ccc2[nH]cc([C@H]3CC[C@H](NCCc4ccccc4)CC3)c2c1")
8.70
>>> number("COc1ccc2c(c1)CN([C@H]1CC[C@H](c3c[nH]c4ccc(C#N)cc43)CC1)CC2")
7.92

Next molecule, please.
Qu. If you can, please state the reported pKi value of N#Cc1ccc2[nH]cc([C@H]3CC[C@@H](N4CCc5ccccc5C4)CC3)c2c1 .
Ans. 8.91

---

Attribute: inhibition
SUBJECT_OF_TEST: UniProt:P08908
Sequence (whole entry): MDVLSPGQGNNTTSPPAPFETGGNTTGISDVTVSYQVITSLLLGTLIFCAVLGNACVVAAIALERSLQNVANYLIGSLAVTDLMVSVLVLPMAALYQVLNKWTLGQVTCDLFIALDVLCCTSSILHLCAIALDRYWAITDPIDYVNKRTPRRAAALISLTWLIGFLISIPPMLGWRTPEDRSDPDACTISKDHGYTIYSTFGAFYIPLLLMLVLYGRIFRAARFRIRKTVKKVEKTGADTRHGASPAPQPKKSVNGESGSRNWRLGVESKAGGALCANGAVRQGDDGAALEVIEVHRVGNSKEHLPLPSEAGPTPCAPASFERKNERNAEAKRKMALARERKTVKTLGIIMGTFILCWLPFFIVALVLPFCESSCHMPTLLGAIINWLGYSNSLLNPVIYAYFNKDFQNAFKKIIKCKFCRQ
PROTOCOL_DESCRIPTION: Binding affinity for 5-hydroxytryptamine 1A receptor was determined by incubating human 5-hydroxytryptamine 1A receptor transfected CHO cells with [3H]8-OH-DPAT
Assay type: cell-based
Parameters: concentration or dose not given beside the values
RUN_PARAMETERS: concentration not given here
Answer shape: numeric part, then the unit.

Qu. Provide value of inhibition for this record tested with UniProt:P08908: c1ccc(CN[C@H]2CC[C@@H](c3c[nH]c4ccccc43)CC2)cc1
Ans. 0%

Qu. Provide value of inhibition for this record tested with UniProt:P08908: N#Cc1ccc2[nH]cc(C3=CCC(N4CCCCC4)CC3)c2c1 (stereo not given)
Ans. 0%

Qu. Provide value of inhibition for this record tested with UniProt:P08908: c1ccc(CN[C@H]2CC[C@H](c3c[nH]c4ccccc43)CC2)cc1
Ans. 32%

Qu. Provide value of inhibition for this record tested with UniProt:P08908: N#Cc1ccc2[nH]cc(C3=CCC(NCc4ccccc4)CC3)c2c1 (stereo not given)
Ans. 87%

Qu. Provide value of inhibition for this record tested with UniProt:P08908: COc1ccc2c(c1)CCN([C@H]1CC[C@@H](c3c[nH]c4ccc(C#N)cc43)CC1)C2
Ans. 21%

Qu. Provide value of inhibition for this record tested with UniProt:P08908: N#Cc1ccc2[nH]cc([C@H]3CC[C@@H](NCCc4ccccc4)CC3)c2c1
Ans. 0%

Qu. Provide value of inhibition for this record tested with UniProt:P08908: COc1ccc2c(c1)CN([C@H]1CC[C@@H](c3c[nH]c4ccc(C#N)cc43)CC1)CC2
Ans. 26%

---

Test system Sodium-dependent serotonin transporter (Rattus norvegicus, UniProt P31652), Ki listed for each of the molecules.
Lab book: enter the figure in nM, no units written.

// solved cases for Ki follow
>>> number("N#Cc1ccc2[nH]cc([C@H]3CC[C@H](NCc4ccccc4)CC3)c2c1")
25
>>> number("COc1ccc2c(c1)CN([C@H]1CC[C@@H](c3c[nH]c4ccc(C#N)cc43)CC1)CC2")
0.8
>>> number("N#Cc1ccc2[nH]cc(C3=CCC(NCc4ccccc4)CC3)c2c1 (stereo not given)")
3.13
>>> number("Fc1ccc2[nH]cc([C@H]3CC[C@H](NCc4ccccc4)CC3)c2c1")
16

Next molecule, please.
Qu. If you can, please state the reported Ki value of N#Cc1ccc2[nH]cc([C@H]3CC[C@@H](N4CCCCC4)CC3)c2c1 .
Ans. 22

---

SUBJECT_OF_TEST: Adrenergic receptor alpha-1 (Rattus norvegicus, UniProt P15823+P23944+P43140)
Sequence (P15823 whole entry): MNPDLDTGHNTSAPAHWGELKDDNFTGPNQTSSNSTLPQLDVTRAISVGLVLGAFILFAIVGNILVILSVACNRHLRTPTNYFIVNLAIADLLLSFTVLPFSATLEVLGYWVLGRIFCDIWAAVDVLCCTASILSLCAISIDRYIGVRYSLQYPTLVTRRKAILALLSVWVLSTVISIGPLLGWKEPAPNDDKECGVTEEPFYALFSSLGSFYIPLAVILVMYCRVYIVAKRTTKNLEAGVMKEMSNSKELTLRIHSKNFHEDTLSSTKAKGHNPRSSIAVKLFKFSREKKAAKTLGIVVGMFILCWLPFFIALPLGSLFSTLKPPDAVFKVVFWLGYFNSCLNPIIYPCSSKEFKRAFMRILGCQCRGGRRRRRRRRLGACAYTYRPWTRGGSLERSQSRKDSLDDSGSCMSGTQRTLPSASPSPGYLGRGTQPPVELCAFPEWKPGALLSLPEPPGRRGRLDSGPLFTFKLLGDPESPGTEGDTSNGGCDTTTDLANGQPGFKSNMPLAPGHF
Sequence (P23944 whole entry): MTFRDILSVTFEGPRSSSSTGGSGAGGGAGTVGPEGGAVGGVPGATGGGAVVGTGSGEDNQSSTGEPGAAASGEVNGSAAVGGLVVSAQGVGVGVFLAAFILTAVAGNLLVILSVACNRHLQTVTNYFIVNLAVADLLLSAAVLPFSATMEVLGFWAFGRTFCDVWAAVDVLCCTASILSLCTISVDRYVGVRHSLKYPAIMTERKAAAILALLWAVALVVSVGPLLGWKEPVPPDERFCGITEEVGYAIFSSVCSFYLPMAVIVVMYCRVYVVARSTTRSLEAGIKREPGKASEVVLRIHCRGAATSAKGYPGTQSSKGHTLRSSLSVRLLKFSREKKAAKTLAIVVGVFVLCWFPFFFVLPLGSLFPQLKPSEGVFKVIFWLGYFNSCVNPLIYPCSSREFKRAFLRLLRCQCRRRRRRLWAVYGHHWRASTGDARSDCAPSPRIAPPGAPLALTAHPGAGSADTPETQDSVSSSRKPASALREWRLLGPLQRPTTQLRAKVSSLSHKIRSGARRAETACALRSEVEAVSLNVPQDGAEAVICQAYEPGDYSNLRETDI
Sequence (P43140 whole entry): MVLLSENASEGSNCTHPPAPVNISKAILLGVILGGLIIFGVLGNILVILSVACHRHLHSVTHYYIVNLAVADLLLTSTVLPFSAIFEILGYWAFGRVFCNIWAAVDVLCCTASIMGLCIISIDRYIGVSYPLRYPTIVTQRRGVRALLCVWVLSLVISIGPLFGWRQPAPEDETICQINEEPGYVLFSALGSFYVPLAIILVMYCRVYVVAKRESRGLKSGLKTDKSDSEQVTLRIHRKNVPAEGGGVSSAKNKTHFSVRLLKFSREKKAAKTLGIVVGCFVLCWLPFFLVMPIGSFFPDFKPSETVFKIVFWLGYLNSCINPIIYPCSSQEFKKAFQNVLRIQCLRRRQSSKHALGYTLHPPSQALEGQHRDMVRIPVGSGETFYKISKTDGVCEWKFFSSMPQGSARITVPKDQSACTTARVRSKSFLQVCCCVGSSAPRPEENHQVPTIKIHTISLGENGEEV
PROTOCOL_DESCRIPTION: Binding affinity at Alpha-1 adrenergic receptors on rat cortical membranes by [3H]prazosin displacement.
Just a reminder that ties go to Condition not met: only Ki strictly below 100 nM counts as Condition met.

These solved cases illustrate the format of a correct answer.
>>> discrete_label("N#Cc1ccc2[nH]cc([C@H]3CC[C@@H](N4CCc5ccccc5C4)CC3)c2c1")
"Condition not met"
>>> discrete_label("COc1ccc2c(c1)CN([C@H]1CC[C@H](c3c[nH]c4ccc(C#N)cc43)CC1)CC2")
"Condition not met"
>>> discrete_label("N#Cc1ccc2[nH]cc([C@H]3CC[C@H](N4CCc5ccccc5C4)CC3)c2c1")
"Condition met"
>>> discrete_label("COc1ccc2c(c1)CCN(CCCc1c[nH]c3ccc(F)cc13)C2")
"Condition met"

From here, focus on the item given below.
Qu. Is it true that Ki reported for COc1ccc2c(c1)CCN([C@H]1CC[C@H](c3c[nH]c4ccc(C#N)cc43)CC1)C2 is less than 100 nM?
Ans. Condition not met

---

SUBJECT_OF_TEST: Adrenergic receptor alpha-1 (Rattus norvegicus) (UniProt P15823+P23944+P43140)
PROTOCOL_DESCRIPTION: In vitro inhibition of [3H]prazosin binding to rat Alpha-1 adrenergic receptors on cortical membranes at 1 uM.
Type: cell membranes
RUN_PARAMETERS: Membrane
RESULT_TYPE: inhibition (%)
Lab book: enter the figure in %, no units written.

>>> number("N#Cc1ccc2[nH]cc([C@H]3CC[C@@H](NCCc4ccccc4)CC3)c2c1")
40
>>> number("c1ccc(CN[C@H]2CC[C@@H](c3c[nH]c4ccccc43)CC2)cc1")
21
>>> number("N#Cc1ccc2[nH]cc([C@H]3CC[C@@H](N4CCCCC4)CC3)c2c1")
3
>>> number("Fc1ccc2[nH]cc([C@H]3CC[C@@H](NCc4ccccc4)CC3)c2c1")
9

Next molecule, please.
Qu. If you can, please state the reported inhibition value of COc1ccc2c(c1)CN([C@H]1CC[C@@H](c3c[nH]c4ccc(C#N)cc43)CC1)CC2 .
Ans. 11
